Origin of measurements: patent US5853699A

Assay: density values of samples measured in a water phantom in a computer tomograph (137 kV, 100 mA)
Assay type: physicochemical
Conditions: 50 mmol/L
We begin with a simple list: items and their reported density (HU ± SD), 50 mmol/L.
The figure you give is taken to be in HU; do not add the unit.

>  <molecule>
CCOc1ccc(CC(CN(CCN(CC(=O)[O-])CC(=O)[O-])CC(=O)[O-])N(CC(=O)[O-])CC(=O)[O-])cc1.[Gd+3].[Na+].[Na+] (stereo not drawn) [Gd-EOB-DTPA]

>  <unitsLabel>
HU

>  <density (HU ± SD), 50 mmol/L>
218

$$$$
>  <molecule>
CCOc1ccc(CC(CN(CCN(CC(=O)[O-])CC(=O)[O-])CC(=O)[O-])N(CC(=O)[O-])CC(=O)[O-])cc1.[Na+].[Na+].[Yb+3] (stereo not drawn) [Yb]

>  <unitsLabel>
HU

>  <density (HU ± SD), 50 mmol/L>
252

$$$$

Turning to the following molecule.
Measured density (HU ± SD), 50 mmol/L of CCOc1ccc(CC(CN(CCN(CC(=O)[O-])CC(=O)[O-])CC(=O)[O-])N(CC(=O)[O-])CC(=O)[O-])cc1.[Ho+3].[Na+].[Na+] (stereo not drawn) [Ho] : 221

====

Assay: density values of samples measured in a water phantom in a computer tomograph (137 kV, 100 mA)
Format: physicochemical
Conditions: 50 mmol/L
We begin with a simple list: items and their reported density (HU ± SD), 50 mmol/L.
The figure you give is taken to be in HU; do not add the unit.

See these solved cases before continuing.
>  <molecule>
CCOc1ccc(CC(CN(CCN(CC(=O)[O-])CC(=O)[O-])CC(=O)[O-])N(CC(=O)[O-])CC(=O)[O-])cc1.[Na+].[Na+].[Tb+3] (stereo not drawn) [Tb]

>  <observed>
228

$$$$
>  <molecule>
CCOc1ccc(CC(CN(CCN(CC(=O)[O-])CC(=O)[O-])CC(=O)[O-])N(CC(=O)[O-])CC(=O)[O-])cc1.[Er+3].[Na+].[Na+] (stereo not drawn) [Er]

>  <observed>
254

$$$$

Turning to the following molecule.
Measured density (HU ± SD), 50 mmol/L of CCOc1ccc(CC(CN(CCN(CC(=O)[O-])CC(=O)[O-])CC(=O)[O-])N(CC(=O)[O-])CC(=O)[O-])cc1.[Dy+3].[Na+].[Na+] (stereo not drawn) [Dy] : 226

====

Assay: density values of samples measured in a water phantom in a computer tomograph (137 kV, 100 mA)
Type: physicochemical
Conditions: 500 mmol/L
propertyLabel: density (HU ± SD), 500 mmol/L (HU)
The figure you give is taken to be in HU; do not add the unit.

See these solved cases before continuing.
>  <molecule>
CCOc1ccc(CC(CN(CCN(CC(=O)[O-])CC(=O)[O-])CC(=O)[O-])N(CC(=O)[O-])CC(=O)[O-])cc1.[Gd+3].[Na+].[Na+] (stereo not drawn) [Gd-EOB-DTPA]

>  <unitsLabel>
HU

>  <observed>
1680

$$$$
>  <molecule>
CCOc1ccc(CC(CN(CCN(CC(=O)[O-])CC(=O)[O-])CC(=O)[O-])N(CC(=O)[O-])CC(=O)[O-])cc1.[Na+].[Na+].[Tb+3] (stereo not drawn) [Tb]

>  <unitsLabel>
HU

>  <observed>
1760

$$$$

Measured density (HU ± SD), 500 mmol/L of CCOc1ccc(CC(CN(CCN(CC(=O)[O-])CC(=O)[O-])CC(=O)[O-])N(CC(=O)[O-])CC(=O)[O-])cc1.[Na+].[Na+].[Yb+3] (stereo not drawn) [Yb] : 1980

Measured density (HU ± SD), 500 mmol/L of CCOc1ccc(CC(CN(CCN(CC(=O)[O-])CC(=O)[O-])CC(=O)[O-])N(CC(=O)[O-])CC(=O)[O-])cc1.[Er+3].[Na+].[Na+] (stereo not drawn) [Er] : 1955

Measured density (HU ± SD), 500 mmol/L of CCOc1ccc(CC(CN(CCN(CC(=O)[O-])CC(=O)[O-])CC(=O)[O-])N(CC(=O)[O-])CC(=O)[O-])cc1.[Dy+3].[Na+].[Na+] (stereo not drawn) [Dy] : 1840

Measured density (HU ± SD), 500 mmol/L of CCOc1ccc(CC(CN(CCN(CC(=O)[O-])CC(=O)[O-])CC(=O)[O-])N(CC(=O)[O-])CC(=O)[O-])cc1.[Ho+3].[Na+].[Na+] (stereo not drawn) [Ho] : 1890
